- System: NCI-H1975
- ASSAY TEXT: relative viability (nuclei count vs DMSO), 5 days (fraction); higher = more cells survive
- TEST SETTINGS: first compound 0.1265 µM
The entries below are paired with their reported relative viability.

# MOLECULE, relative viability
data = [
    ("Clc1ccc(Nc2nnc(Cc3ccncc3)c3ccccc23)cc1 [Vatalanib] + CC1(C)CCC(c2ccc(Cl)cc2)=C(CN2CCN(c3ccc(C(=O)NS(=O)(=O)c4ccc(N[C@H](CCN5CCOCC5)CSc5ccccc5)c(S(=O)(=O)C(F)(F)F)c4)cc3)CC2)C1 [Navitoclax] (partner 0.5 µM)", 1),
]

Shift focus to the following entry.
Consider COc1cc(N2CCC(C(N)=O)CC2)ccc1Nc1nc(N)c(Cl)c(Nc2ccccc2S(=O)(=O)C(C)C)n1 [HG-5-88-01] + CC(=O)c1c(C)c2cnc(Nc3ccc(N4CCNCC4)cn3)nc2n(C2CCCC2)c1=O [Palbociclib] (partner 0.5 µM) . Its measured relative viability is 0.643

---

- Tested on: HCC-15
- ASSAY TEXT: relative viability (nuclei count vs DMSO), 5 days (fraction); higher = more cells survive
- TEST SETTINGS: first compound 0.1265 µM
QUANTITY KIND: relative viability

Check out these entries, answers already filled in.
# MOLECULE, relative viability
rows = [
    ("C[C@@H]1CN(CC(=O)Nc2ccc3c(c2)Cc2cccc(-c4cc(=O)cc(N5CCOCC5)o4)c2S3)C[C@H](C)O1 + O=C(c1cc(Cc2n[nH]c(=O)c3ccccc23)ccc1F)N1CCN(C(=O)C2CC2)CC1 [Olaparib] (partner 8 µM)", 0.658),
    ("Clc1ccc(Nc2nnc(Cc3ccncc3)c3ccccc23)cc1 [Vatalanib] + CC1(C)CCC(c2ccc(Cl)cc2)=C(CN2CCN(c3ccc(C(=O)NS(=O)(=O)c4ccc(N[C@H](CCN5CCOCC5)CSc5ccccc5)c(S(=O)(=O)C(F)(F)F)c4)cc3)CC2)C1 [Navitoclax] (partner 0.5 µM)", 0.713),
]

Shifting focus to the molecule that follows.
response.value for COc1cc(N2CCC(C(N)=O)CC2)ccc1Nc1nc(N)c(Cl)c(Nc2ccccc2S(=O)(=O)C(C)C)n1 [HG-5-88-01] + C[C@@H](Oc1cc(-c2cnn(C3CCNCC3)c2)cnc1N)c1c(Cl)ccc(F)c1Cl [Crizotinib] (partner 1 µM) (field: relative viability) = 0.775

---

- Test system: NCI-H520
- ASSAY TEXT: relative viability (nuclei count vs DMSO), 5 days (fraction); higher = more cells survive
- TEST SETTINGS: first compound 0.04 µM
# fulfilled = relative viability below 0.9 (exclusive); not fulfilled = relative viability at/above 0.9

Take a look at these entries with their results.
# COMPOUND, CLASSIFICATION
records = [
    ("C[C@@H]1CN(CC(=O)Nc2ccc3c(c2)Cc2cccc(-c4cc(=O)cc(N5CCOCC5)o4)c2S3)C[C@H](C)O1 + CS(=O)(=O)N1CCN(Cc2cc3nc(-c4cccc5[nH]ncc45)nc(N4CCOCC4)c3s2)CC1 [Pictilisib] (partner 1 µM)", "fulfilled"),
    ("C[C@@H]1CN(CC(=O)Nc2ccc3c(c2)Cc2cccc(-c4cc(=O)cc(N5CCOCC5)o4)c2S3)C[C@H](C)O1 + Cc1nc(NC(=O)N2CCC[C@H]2C(N)=O)sc1-c1ccnc(C(C)(C)C(F)(F)F)c1 [Alpelisib] (partner 2 µM)", "not fulfilled"),
    ("COc1cc(N2CCC(C(N)=O)CC2)ccc1Nc1nc(N)c(Cl)c(Nc2ccccc2S(=O)(=O)C(C)C)n1 [HG-5-88-01] + COc1cc2c(Oc3ccc(NC(=O)C4(C(=O)Nc5ccc(F)cc5)CC4)cc3F)ccnc2cc1OCCCN1CCOCC1 [Foretinib] (partner 0.25 µM)", "fulfilled"),
]

Consider now this further compound.
Is relative viability of Clc1ccc(Nc2nnc(Cc3ccncc3)c3ccccc23)cc1 [Vatalanib] + COc1cccc2cc(-c3nc([C@H]4CC[C@H](C(=O)O)CC4)n4ncnc(N)c34)[nH]c12 [OSI-027] (partner 0.5 µM) strictly below 0.9?
fulfilled
